Ref: PubChem BioAssay (Tox21)

Target: Estrogen receptor (Homo sapiens)
Assay: qHTS assay to identify small molecule antagonists of the estrogen receptor alpha (ER-alpha) signaling pathway using the BG1 cell line in the presence of 0.1 nM 17-beta-estradiol (AID 1259244); also: nearly all actives have a fitted effect of over 50% in size; also: potency is read from the fitted curve at half-maximal effect
Settings: VM7Luc4E2 (BG1) ERE-luciferase, antagonist mode, 0.1 nM E2, 22 h; series mostly up to 92.4 µM
Inconclusive results are not listed. The source made the active and inactive calls. Calls follow the shape of the dose curve; as a rule, active = well fitted inhibition curve with a large enough effect in the repeat runs; inconclusive = weak or mixed curves; inactive = no such curve, though single readings can be large or run the other way.
Observation type: Potency

Known Potency results, listed for orientation:
| Molecule | Value measured |
| --- | --- |
| OC1(c2ccc(Cl)c(C(F)(F)F)c2)CCN(CCCC(c2ccc(F)cc2)c2ccc(F)cc2)CC1 | 26.6 µM (active) |
| CCN(Cc1cccnc1)C(=O)c1cccc(Cl)c1[C@]1(C)C(=O)N(Cc2ccc(OC)cc2OC)c2ccc(Cl)cc21 | 64.1 µM (active) |
| Nc1ccccc1O | 30.2 µM (active) |
| Oc1cc2ccccc2c2ccccc12 | 15.4 µM (active) |
| CC(=O)OCC(C)OC(C)=O (stereo unspecified) | inactive |
| Oc1ccc(N=Nc2ccccc2)cc1 | inactive |

Challenge: Requested read-out: Potency. Entry: "O=C(Oc1ccccc1)c1ccccc1C(=O)Oc1ccccc1"
Response given: inactive

Challenge: And then "[O-][n+]1ccccc1SSc1cccc[n+]1[O-]" , what is it?
Response given: 0.13 µM (active)
